Values from patent US10752587B2

# system: glutathione-S-transferase (GST) tagged LXRalpha LBD (ligand binding domain) (Homo sapiens)
# Construct: purchased Invitrogen pv4655
# Sequence (Q13133 209-447 limits assumed): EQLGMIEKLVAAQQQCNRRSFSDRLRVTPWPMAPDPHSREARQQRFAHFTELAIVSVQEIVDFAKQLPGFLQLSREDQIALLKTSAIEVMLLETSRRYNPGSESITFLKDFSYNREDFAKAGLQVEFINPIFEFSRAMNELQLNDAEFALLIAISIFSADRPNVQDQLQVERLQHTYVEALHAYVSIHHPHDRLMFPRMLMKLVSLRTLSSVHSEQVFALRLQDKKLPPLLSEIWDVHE
# protocol notes: LanthaScreen TR-FRET Liver X Receptor Coactivator Assay, co-activator recruitment to LXRalpha LBD
# Format: biochemical
# assay setup: efficacy at max dose, in relation to reference dual agonist T0901317; read-out: LXR alpha Activity @ max dose (%)
value kind: Emax (%)

1: COc1cc(F)cc([C@@](O)(C(=O)N2CCC(CC3CCN(c4ccc(C(=O)N(C)C)c(Cl)n4)CC3)CC2)C(F)(F)F)c1 [Example 7-101]
2: CN(C)C(=O)c1ccc(N2CCC(CC3CCN(C(=O)C4(c5ccccc5)CC4)CC3)CC2)cc1Cl [Example 2-9]
3: Cc1cc(N2CCC(CC3CCN(C(=O)[C@](O)(c4cccc(OC(F)(F)F)c4)C(F)(F)F)CC3)CC2)ccc1C(=O)N(C)C [Example 2-150]
Q. Rank the items above by Emax, largest value first. Rank them, then answer with their labels in that order.
A. 1, 3, 2
(1: 22%, 3: 15%, 2: 0%)

* * *

# system: glutathione-S-transferase (GST) tagged LXRbeta LBD (ligand binding domain) (Homo sapiens)
# Construct: purchased Invitrogen pv4658.pps
# Sequence (P55055 222-460 limits assumed): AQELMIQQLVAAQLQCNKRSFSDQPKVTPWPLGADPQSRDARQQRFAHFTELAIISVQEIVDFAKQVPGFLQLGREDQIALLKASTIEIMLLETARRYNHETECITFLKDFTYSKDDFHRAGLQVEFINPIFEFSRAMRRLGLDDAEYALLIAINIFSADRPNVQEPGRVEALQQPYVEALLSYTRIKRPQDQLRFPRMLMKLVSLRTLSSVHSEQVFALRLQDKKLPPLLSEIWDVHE
# protocol notes: LanthaScreen TR-FRET Liver X Receptor Coactivator Assay, co-activator recruitment to LXRbeta LBD
# Format: biochemical
# assay setup: efficacy at max dose, in relation to reference dual agonist T0901317; read-out: LXR beta Activity @ max dose (%)
value kind: Emax (%)

1) COc1cc(Cl)cc(C(O)(C(=O)N2CCC(CC3CCN(c4ccc(C(=O)N(C)C)c(Cl)n4)CC3)CC2)C(F)(F)F)c1 (stereo not shown) [Example 7-105] ... 30

1: C[C@H]1CCCN1C(=O)c1ccc(N2CCC(CC3CCN(C(=O)[C@](O)(c4ccccc4)C(F)(F)F)CC3)CC2)cc1Cl [Example 4-6]
2: CN(C)C(=O)c1ccc(N2CCC(CC3CCN(C(=O)C(O)(c4cc(F)cc(F)c4)C(F)(F)F)CC3)CC2)cc1 (stereo not shown) [Example 2-126]
3: CCc1cccc([C@@](O)(C(=O)N2CCC(CC3CCN(c4ccc(C(=O)N(C)C)c(Cl)c4)CC3)CC2)C(F)(F)F)c1 [Example 2-113]
Q. Rank order required: Emax, descending. Give me the labels in the order the question wants.
A. 2, 1, 3

* * *

# system: glutathione-S-transferase (GST) tagged LXRbeta LBD (ligand binding domain) (Homo sapiens)
# Construct: purchased Invitrogen pv4658.pps
# protocol notes: LanthaScreen TR-FRET Liver X Receptor Coactivator Assay, co-activator recruitment to LXRbeta LBD
# Type: biochemical
# assay setup: efficacy at max dose, in relation to reference dual agonist T0901317; read-out: LXR beta Activity @ max dose (%)
value kind: Emax (%)

1) COc1cccc([C@@](O)(C(=O)N2CCC(CC3CCN(c4ccc(C(=O)N(C)C)cc4)CC3)CC2)C(F)(F)F)c1 [Example 2-124] ... 55

P: CNC(=O)c1ccc(N2CCC(CC3CCN(C(=O)C(O)(c4cc(F)cc(F)c4)C(F)(F)F)CC3)CC2)nc1Cl (stereo not drawn) [Example 7-133]
Q: CCOc1cccc([C@@](O)(C(=O)N2CCC(CC3CN(c4ccc(C(=O)N(C)C)c(C5CC5)n4)C3)CC2)C(F)(F)F)c1 [Example 7-17]
Q. So which one has the bigger Emax here, P or Q ? Choose, then provide that item's label.
A. P
(P: 123%, Q: 36%)
